Test system: NQO1 specific enzyme activity in BEAS-2B cells (marker for NRF2 activation)
Assay: BEAS-2B NQO1 MTT Assay
Type: cell-based
Conditions: Homo sapiens, BEAS-2B, 48 h, NQO1 specific activity induction, 48 hours with compound
From the text: NAD(P)H:quinone oxidoreductase 1 (NQO1), also called DT diaphorase, is a homodimeric FAD-containing enzyme that catalyzes obligatory NAD(P)H-dependent two-electron reductions of quinones and protects cells against the toxic and neoplastic effects of free radicals and reactive oxygen species arising from one-electron reductions. […] On day one, frozen BEAS-2B cells (ATCC) were thawed in a water bath, counted, and re-suspended at a concentration of 250,000 cells/mL. […]
pEC50: −log10 of the molar value. Where a name gives a salt, the structure may show the parent alone.
Property measured: pEC50

Before answering, review these 5 worked examples.
Compound: CCCn1cc(CO[C@H](c2ccc(C)c(CN3C[C@H](C)Cc4ccncc4S3(=O)=O)c2)C(C)(C)C(=O)O)nn1
pEC50: 6.00 to 7.00
//
Compound: CC[C@@H]1CN(Cc2cc(C(OCc3cn(Cc4ccccc4)nn3)C(C)(C)C(=O)O)ccc2C)S(=O)(=O)c2ccccc2O1 (stereo partly drawn)
pEC50: > 9.00
//
Compound: CC[C@@H]1CN(Cc2cc(C(OCc3cn(Cc4cc(C)cc(Cn5cc(CO)nn5)c4)nn3)C(C)(C)C(=O)O)ccc2C)S(=O)(=O)c2ccccc2O1 (stereo partly drawn)
pEC50: 8.00 to 9.00
//
Compound: CCCn1cc(CO[C@H](c2ccc(C)c(CN3C[C@@H](C)Cc4ccncc4S3(=O)=O)c2)C(C)(C)C(=O)O)nn1
pEC50: > 9.00
//
Compound: Cc1ccc([C@@H](OCc2cn(Cc3ccc(Cn4cc(CO[C@H](c5ccc(C)c(CN6C[C@@H](C)Oc7ccccc7S6(=O)=O)c5)C(C)(C)C(=O)O)nn4)cc3)nn2)C(C)(C)C(=O)O)cc1CN1C[C@@H](C)Oc2ccccc2S1(=O)=O (relative stereo)
pEC50: 6.00 to 7.00

Next item in the queue.
pEC50 for Cc1ccc(C(OCc2cn(CC3CCNCC3)nn2)C(C)(C)C(=O)O)cc1CN1C[C@@H](C)Oc2ccccc2S1(=O)=O (stereo partly drawn) [Example 53, Formic Acid Salt] is 6.00 to 7.00

* * *

Tested on: NQO1 specific enzyme activity in BEAS-2B cells (marker for NRF2 activation)
Test: BEAS-2B NQO1 MTT Assay
Type: cell-based
Details: Homo sapiens, BEAS-2B, 48 h, NQO1 specific activity induction, 48 hours with compound
pEC50: −log10 of the molar value.
For each record, write down the corresponding pEC50.

Compound: CCn1cc(CO[C@@H](c2ccc(C)c(CN3C[C@H](C)Cc4ccccc4S3(=O)=O)c2)C(C)(C)C(=O)O)nn1 [Example 65]
Target or test system: NQO1 specific enzyme activity in BEAS-2B cells (marker for NRF2 activation)
pEC50: 6.00 to 7.00

Compound: Cc1ccc(C(OCc2cn(CC3CC[N+]4(CCOCC4)CC3)nn2)C(C)(C)C(=O)O)cc1CN1CC(C)Oc2ccccc2S1(=O)=O (stereo in doubt) [Example 56]
Target or test system: NQO1 specific enzyme activity in BEAS-2B cells (marker for NRF2 activation)
pEC50: 5.00 to 6.00

Compound: Cc1ccc([C@H](OCc2cn(Cc3ccc(Cn4cc(CO[C@@H](c5ccc(C)c(CN6C[C@@H](C)Oc7ccccc7S6(=O)=O)c5)C(C)(C)C(=O)O)nn4)cc3)nn2)C(C)(C)C(=O)O)cc1CN1C[C@@H](C)Oc2ccccc2S1(=O)=O (relative stereo) [Example 46]
Target or test system: NQO1 specific enzyme activity in BEAS-2B cells (marker for NRF2 activation)
pEC50: 7.00 to 8.00

Compound: COCCn1cc(CO[C@H](c2ccc(C)c(CN(Cc3ccccc3)S(=O)(=O)c3cccc(C(=O)O)c3)c2)C(C)(C)C(=O)O)nn1 [Example 94]
Target or test system: NQO1 specific enzyme activity in BEAS-2B cells (marker for NRF2 activation)
pEC50: 6.00 to 7.00

Next item in the queue.
pEC50 for Cc1ccc(C(OCc2cn(CC3CCN(C(=O)C4CCOCC4)CC3)nn2)C(C)(C)C(=O)O)cc1CN1C[C@@H](C)Oc2ccccc2S1(=O)=O (some centres unmarked) [Example 35] is 6.00 to 7.00
